System: NCI-H1993
assay.text: relative viability (nuclei count vs DMSO), 5 days (fraction); higher = more cells survive
test.settings: first compound 0.2 µM

molecule | assayed.system | relative viability
Cc1csc(=NC2CCCCC2)n1/N=C/c1ccc(O)c(O)c1O [MIM1] + Nc1ncn([C@H]2C[C@H](O)[C@@H](CO)O2)c(=O)n1 [Decitabine] (partner 2 µM) | NCI-H1993 | 0.534
CCNC(=O)c1noc(-c2cc(C(C)C)c(O)cc2O)c1-c1ccc(CN2CCOCC2)cc1 [Luminespib] + CS(=O)(=O)N1CCN(Cc2cc3nc(-c4cccc5[nH]ncc45)nc(N4CCOCC4)c3s2)CC1 [Pictilisib] (partner 1 µM) | NCI-H1993 | 0.643
CCNC(=O)c1noc(-c2cc(C(C)C)c(O)cc2O)c1-c1ccc(CN2CCOCC2)cc1 [Luminespib] + Nc1nc2[nH]cc(CCc3ccc(C(=O)N[C@@H](CCC(=O)O)C(=O)O)cc3)c2c(=O)[nH]1 [Pemetrexed] (partner 0.2 µM) | NCI-H1993 | 0.367
CN1CCN(CCOc2cc(OC3CCOCC3)c3c(Nc4c(Cl)ccc5c4OCO5)ncnc3c2)CC1 [Saracatinib] + C[C@]1(O)C[C@@H](c2nc(-c3ccc4ccc(-c5ccccc5)nc4c3)c3c(N)nccn32)C1 [Linsitinib] (partner 1 µM) | NCI-H1993 | 0.715
